Consider the following pKi values measured on MAPK14 (human).
pKi: −log10 of the molar value.

{"structure": "CC(C)n1c(OCCNC(N)=O)nc(OCc2ccc(F)cc2F)c(Cl)c1=O", "pKi": 7.91}
{"structure": "CC(C)n1c(CCC(N)=O)nc(OCc2ccc(F)cc2F)c(Cl)c1=O", "pKi": 6.01}
{"structure": "CC(C)n1c(N[C@@H](C)C(N)=O)nc(OCc2ccc(F)cc2F)c(Br)c1=O", "pKi": 8.76}
{"structure": "CC(C)n1c(OCCN)nc(OCc2ccc(F)cc2F)c(Br)c1=O", "pKi": 6.85}
{"structure": "CC(C)n1c(CCCC(=O)NCCO)nc(OCc2ccc(F)cc2F)c(Cl)c1=O", "pKi": 6.50}
